Reported EC50 by item:
assayed-target: full-length H1 A/California/07/2009 HA expressed on 293T cells (influenza A virus A/California/07/2009 (H1N1))
method-notes: flow cytometry, HA-expressing 293T
quantity-name: EC50

1. S11 (antibody, V domains shown) VH: EVQLVESGGGLVQPGGSLRLSCAASGFTIDNGGIHWVRQAPGKGLEWVAWIGPYGGSTSYADSVKGRFTISADTSKNTAYLQMNSLRAEDTAVYYCARFGFGLHDLMDYWGQGTLVTVSS VL: DIQMTQSPSSLSASVGDRVTITCRASQDVYSWVAWYQQKPGKAPKLLIYYSSFLYSGVPSRFSGSGSGTDFTLTISSLQPEDFATYYCQQYYNGPLTFGQGTKVEIKR | 4.07 µg/mL
2. P44 (antibody, V domains shown) VH: EVQLVESGGGLVQPGGSLRLSCAASGFTIDGWWIHWVRQAPGKGLEWVAGIWPFGGFTSYADSVKGRFTISADTSKNTAYLQMNSLRAEDTAVYYCARSYSGYSGDYWGQGTLVTVSS VL: DIQMTQSPSSLSASVGDRVTITCRASQDVNNNVAWYQQKPGKAPKLLIYWSSSLYSGVPSRFSGSGSGTDFTLTISSLQPEDFATYYCQQYYNFPVTFGQGTKVEIKR | 0.466 µg/mL
3. P10 (antibody, V domains shown) VH: EVQLVESGGGLVQPGGSLRLSCAASGFTIDNSWIHWVRQAPGKGLEWVASIWPFGGYTYYADSVKGRFTISADTSKNTAYLQMNSLRAEDTAVYYCARFGNVFDWYMDYWGQGTLVTVSS VL: DIQMTQSPSSLSASVGDRVTITCRASQDVNSNVAWYQQKPGKAPKLLIYWAGYLYSGVPSRFSGSGSGTDFTLTISSLQPEDFATYYCQQSSDFPITFGQGTKVEIKR | 0.41 µg/mL
4. S10 (antibody, V domains shown) VH: EVQLVESGGGLVQPGGSLRLSCAASGFTIGGYGIHWVRQAPGKGLEWVASIGPSWGFTFYADSVKGRFTISADTSKNTAYLQMNSLRAEDTAVYYCARFNWVINGVTDYWGQGTLVTVSS VL: DIQMTQSPSSLSASVGDRVTITCRASQDVSYYVAWYQQKPGKAPKLLIFWSTFLYSGVPSRFSGSGSGTDFTLTISSLQPEDFATYYCQQYYDSPMTFGQGTKVEIKR | 3.38 µg/mL
5. S29 (antibody, V domains shown) VH: EVQLVESGGGLVQPGGSLRLSCAASGFTISDYWIHWVRQAPGKGLEWVASIWPSGGYTYYADSVKGRFTISADTSKNTAYLQMNSLRAEDTAVYYCARFNWIVGHYMDYWGQGTLVTVSS VL: DIQMTQSPSSLSASVGDRVTITCRASQDVFGGVAWYQQKPGKAPKLLIYWSSWLYSGVPSRFSGSGSGTDFTLTISSLQPEDFATYYCQQYYDGPITFGQGTKVEIKR | 4.22 µg/mL

Data provenance: patent US20210070843A1
